target: SARS-COV-2 RBD extracellular domain expressed with a C-terminal myc-myc-hexahistidine tag (SARS-CoV-2); assay: SPR (Biacore), mAb captured by anti-human Fc, RBD-mmH in solution, 25 C
pKd: −log10 of the molar value.
reported.property: pKd

[
  {
    "binder": "mAb15164 (antibody, V domains shown) VH: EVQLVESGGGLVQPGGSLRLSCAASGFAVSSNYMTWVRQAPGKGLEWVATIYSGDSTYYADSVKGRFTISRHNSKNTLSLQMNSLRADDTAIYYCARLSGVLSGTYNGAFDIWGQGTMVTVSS VL: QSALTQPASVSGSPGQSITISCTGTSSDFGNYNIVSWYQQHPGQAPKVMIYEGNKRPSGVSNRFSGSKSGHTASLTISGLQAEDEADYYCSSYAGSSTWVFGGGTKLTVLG",
    "reported.property": "pKd",
    "numeric.value": 8.82
  }
]
